The measurements presented in this section are drawn from PubChem BioAssay (NCI).

System: SF-295 CNS
PROCEDURE TEXT: NCI tumour cell line growth inhibition, 48 h
PROPERTY MEASURED: TGI

Observe how each entry below is paired with its result.
NC(=S)N/N=C(\CCC(=O)Nc1ccccc1[N+](=O)[O-])CC(=O)c1ccco1 = > 100 µM
CN(C)CCN(C)C(=O)C1CCCN1C(=O)OCc1ccccc1 (stereo not drawn) = > 100 µM
Cc1ccc(S(=O)(=O)ON2C(=O)c3c(N)c(C#N)c(-c4ccccc4)c(-c4ccccc4)c3C2=O)cc1 = 92.8 µM

As a next step, examine the molecule that follows.
// query TGI value for entry COc1ccc2c(c1)-c1nc(=O)n(CCCN(C)C)c3ccc([N+](=O)[O-])c(c13)N2
20.8 µM
